- assay system: human Dock5 (Homo sapiens, UniProt Q9H7D0)
- Construct: plasmid expressing the catalytic DHR2 domain of mouse or human Dock5
- Sequence (Q9H7D0 1231-1642 limits assumed): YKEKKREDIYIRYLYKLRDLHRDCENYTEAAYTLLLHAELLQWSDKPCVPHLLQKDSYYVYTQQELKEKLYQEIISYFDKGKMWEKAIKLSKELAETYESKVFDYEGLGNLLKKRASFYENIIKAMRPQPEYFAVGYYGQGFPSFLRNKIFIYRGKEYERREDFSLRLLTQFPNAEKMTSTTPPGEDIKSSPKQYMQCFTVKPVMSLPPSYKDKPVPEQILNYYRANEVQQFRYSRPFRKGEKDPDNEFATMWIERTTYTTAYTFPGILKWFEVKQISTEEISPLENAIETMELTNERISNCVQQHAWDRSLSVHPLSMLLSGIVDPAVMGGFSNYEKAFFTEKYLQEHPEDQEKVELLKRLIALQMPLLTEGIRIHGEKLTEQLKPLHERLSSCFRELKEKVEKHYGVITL
- method summary: Pull down assay of Rac activation by human Dock5 DHR2 in transfected 293T cells
- assay context: human Dock5; 1 hour treatment
- Procedure: Compounds E73, E88 and E78 were tested for their inhibiting effect of the activation of Rac by mouse Dock5 of and for certain human Dock5 according to a screening test using a pull down assay as represented in Figure 1. Methodology (Figure 1): cells 293T seeded onto 100 mm diameter plates in a DMEM culture medium containing 10% serum in an incubator in 5.5% CO2 humidified atmosphere at 37°C. […] The basal activation of Rac by Dock5 is measured from the cells treated with 0.5% DMSO. […]
measured parameter: pIC50
Give bare numbers, as −log10 of the molar value.

Solved cases (6 shown):
- O=S1(=O)N(c2ccccc2)C[C@H](O)[C@]12CCN(Cc1ccccc1Cl)C2 (racemic): 4.46
- O=C1N(c2cccc(F)c2)CCC12CCN(Cc1cccc(Cl)c1)C2 (centres unmarked): 4.70
- O=S1(=O)N(c2ccccc2)C[C@H](O)[C@]12CCN(Cc1ccc(Cl)c(Cl)c1)C2 (racemic): 4.54
- COc1ccc(N2CCC3(CCN(Cc4cccc(Cl)c4)C3)C2=O)cc1C (centres unmarked): 5.10
- COc1ccc(CN2CC[C@@]3(C2)[C@@H](O)CN(c2ccccc2)S3(=O)=O)cc1F (racemic): 4.36
- O=S1(=O)N(c2ccccc2)C[C@H](O)[C@]12CCN(Cc1cccc(Cl)c1)C2: 4.44

Batch request: pIC50 per item, same order as input.
1. O=S1(=O)N(c2ccccc2)C[C@H](O)[C@]12CCN(Cc1cc3ccccc3o1)C2 (racemic)
2. O=S1(=O)N(c2ccccc2)C[C@H](O)[C@]12CCN(Cc1cnc3ccccc3c1)C2 (racemic)

Given back:
4.37
4.66

====

- assay system: human Dock5 (Homo sapiens)
- Construct: plasmid expressing the catalytic DHR2 domain of mouse or human Dock5; expressed in transfected cells; host or cells: 293T cells
- method summary: Pull down assay of Rac activation by human Dock5 DHR2 in transfected 293T cells
- Assay type: cell-based
- assay context: HEK-293T, Table 3; human Dock5; at 50µM
Would you kindly list inhibition at 50 µM for each of these compounds?
Answers are plain numbers, in %.

Solved cases (3 shown):
• O=S1(=O)N(c2ccccc2)C[C@H](O)[C@]12CCN(Cc1ccc(Cl)c(Cl)c1)C2 (racemic) = 95
• O=S1(=O)N(c2ccccc2)C[C@H](O)[C@]12CCN(Cc1cc3ccccc3o1)C2 (racemic) = 70
• O=S1(=O)N(c2ccccc2)C[C@H](O)[C@]12CCN(Cc1ccc(Cl)cc1)C2 (racemic) = 80

Batch request: inhibition at 50 µM per item, same order as input.
1. O=S1(=O)N(c2ccccc2)C[C@H](O)[C@]12CCN(Cc1cnc3ccccc3c1)C2 (racemic)
2. CCOC(=O)CO[C@H]1CN(c2ccccc2)S(=O)(=O)[C@@]12CCN(Cc1ccccc1)C2
3. O=C1N(c2cccc(F)c2)CCC12CCN(Cc1cccc(Cl)c1)C2 (centres unmarked)
4. O=S1(=O)N(c2ccccc2)C[C@H](OCCO)[C@]12CCN(Cc1ccccc1)C2
5. COc1ccc(CN2CC[C@@]3(C2)[C@@H](O)CN(c2ccccc2)S3(=O)=O)cc1F (racemic)

Given back:
[95, 70, 55, 65, 90]
